meta.source: patent US11415579B2

- EXPERIMENTAL SYSTEM: Cdk2(T182C) (C177A) (Homo sapiens, UniProt P24941, C177A/T182C)
- Construct: poly-histidine; made in house; host or cells: E. coli
- ASSAY NOTES: Kinetic thiol consumption assay with Cdk2 mutant T182C
- Type: binding
- Parameters: key: rate constant with Cdk2 ÷ rate constant with model thiol (fold)
- EXPERIMENTAL CONDITIONS: Cdk2 T182C, additional mutation C177A
- Experimental: To wells containing 150 μL thiol (Cdk2 or model thiol) (5 μM) in degassed phosphate buffer (pH 8) was added immobilized TCEP beads (2% v/v). After incubation of the fluorescence plates for 1 hour at room temperature, fluorescence measurements (excitation/emission of 380/470 nm) were taken on a PerkinElmer EnVision multilabel plate reader and processed with EnVision Workstation version 1.12. Fluorescence measurements were normalized against a DMSO/thiol only control and plotted against time. […]
Please respond with reported Rate enhancement, Cdk2 T182C for every item in the list.

[in] Give its Rate enhancement, Cdk2 T182C value. Item: "C=CC(=O)N1CCCc2cc(C(=O)OC)ccc21"
[out] 7.764

[in] Also C=CC(=O)N1CCCN2C(=O)CCC12c1ccc(OC)cc1 (stereo not drawn) , if possible.
[out] 2.927

[in] Also "C=CC(=O)N1CCN(C(=O)OC(C)(C)C)c2ccccc21" , if possible.
[out] 2.337

[in] Also "C=CC(=O)Nc1cccc(-c2cc3ccccc3[nH]2)c1" , if possible.
[out] 2.526

[in] Also C=CC(=O)N1CC2CCCCCCC21 (stereo not drawn) , if possible.
[out] 4.766

[in] Also "C=CC(=O)N(CC(=O)NC1CC1)C1CC1" , if possible.
[out] 1.063

[in] Also "C=CC(=O)NCc1ccc(-c2ccccc2)cc1" , if possible.
[out] 0.5328

[in] Also "C=CC(=O)N1CC(OCc2cccc3ccccc23)C1" , if possible.
[out] 13.92

[in] Also C=CC(=O)N(C)C1C2CCOC2C1(C)C (stereo not drawn) , if possible.
[out] 6.867

[in] Also "C=CC(=O)NCc1ccc(-c2csnn2)cc1" , if possible.
[out] 3.479

[in] Also C=CC(=O)NCC1CCCN1S(=O)(=O)c1ccc(C)cc1 (stereo not drawn) , if possible.
[out] 0

[in] Also "C=CC(=O)N1CC2(CCC2)c2c(F)cccc21" , if possible.
[out] 1.883

[in] Also C=CC(=O)N1CCCC2(CCCc3ccccc32)C1 (stereo not drawn) , if possible.
[out] 3.848

[in] Also "C=CC(=O)Nc1ccc(C(=O)c2ccccc2)cc1" , if possible.
[out] 9.837

[in] Also C=CC(=O)N1C(C(=O)c2ccccc2)C1c1ccccc1 (stereo not drawn) , if possible.
[out] 13.66

[in] Also "C=CC(=O)N(Cc1ccc2c(c1)CCO2)C1CCCC1" , if possible.
[out] 11.73

[in] Also "C=CC(=O)Nc1ccccc1-c1ccccc1" , if possible.
[out] 2.136

[in] Also CC1CN(C(=O)CCl)CC(C)O1 (stereo not drawn) , if possible.
[out] 0.3161

[in] Also C=CC(=O)Nc1cccc(C(F)(F)F)c1 [BN-80] , if possible.
[out] 4.026

[in] Also C=CC(=O)NC(C)c1cc(OC)c(OC)c(OC)c1 (stereo not drawn) , if possible.
[out] 1.305

[in] Also "C=CC(=O)N1CC(Cc2ccccc2)C1" , if possible.
[out] 6.718

[in] Also "C=CC(=O)Nc1ccccc1C#N" , if possible.
[out] 5.018

[in] Also "C=CC(=O)Nc1cccc(Nc2ncnc3cc(OC)c(OC)cc23)c1" , if possible.
[out] 34.92

[in] Also "C=CC(=O)NCc1ccc(C(=O)OC)cc1" , if possible.
[out] 0.8711
